test.summary: Cell culture viability in the Huh7 HBV assay (HPRT1 DNA copy number)
cond: human
Exercise: for every item that follows, state its recorded viability at 4 days, 10 µM.
Could you give the number and then its unit, please?

Recorded results for 3 compounds are shown here.
{"columns": ["compound", "viability at 4 days, 10 µM"],
 "data": [
  ["COC(=O)c1cn(C/C(C)=C/CP(=O)(OCOC(=O)OC(C)C)OCOC(=O)OC(C)C)nn1 [Compound 11n]", "60%"],
  ["CCCCCCCC(=O)NCc1cn(C/C(C)=C/CP(=O)(OCOC(=O)OC(C)C)OCOC(=O)OC(C)C)nn1 [Compound 11k]", "100%"],
  ["C/C(=C\\CP(=O)(OCOC(=O)OC(C)C)OCOC(=O)OC(C)C)Cn1cc(C(N)=O)nn1 [Compound 11j]", "100%"]
]}

Consider now this further compound.
Quick check: viability at 4 days, 10 µM of CNC(=O)c1cn(C/C(C)=C/CP(=O)(OCOC(=O)OC(C)C)OCOC(=O)OC(C)C)nn1 [Compound 11p] ?
54%

* * *

test.summary: Cell culture viability in the Huh7 HBV assay (HPRT1 DNA copy number)
cond: human
endpoint.name: viability at 4 days, 10 µM (%)
Numbers only, in %.

{"columns": ["molecule", "viability at 4 days, 10 µM [%]"],
 "data": [
  ["CCCCc1ccc(-c2cn(C/C(C)=C/CP(=O)(OCOC(=O)OC(C)C)OCOC(=O)OC(C)C)nn2)cc1 [Compound 11b]", 88],
  ["C/C(=C\\CP(=O)(OCOC(=O)OC(C)C)OCOC(=O)OC(C)C)Cn1cc(CO)nn1 [Compound 11h]", 100],
  ["CCCCCCCCCCCCCCCCOCCCOP(=O)(C/C=C(\\C)Cn1cc(-c2ccc(CCCCCCC)cc2)nn1)OCOC(=O)OC(C)C (stereo not shown) [Compound 15e]", 100],
  ["CCNC(=O)c1cn(C/C(C)=C/CP(=O)(OCOC(=O)OC(C)C)OCOC(=O)OC(C)C)nn1 [Compound 11q]", 90],
  ["C/C(=C\\CP(=O)(OCOC(=O)OC(C)C)OCOC(=O)OC(C)C)Cn1cc(C2CC2)nn1 [Compound 11f]", 100]
]}

Items follow; give viability at 4 days, 10 µM for each.
1. CCOC(=O)c1cn(C/C(C)=C/CP(=O)(OCOC(=O)OC(C)C)OCOC(=O)OC(C)C)nn1 [Compound 11o]
2. CCCCCCCCCCCCCCCCOCCCOP(=O)(C/C=C(\C)Cn1cc(-c2ccc(CCC)cc2)nn1)OCOC(=O)OC(C)C (stereo not shown) [Compound 15a]

60
95

* * *

System: HIV-1 LAI
test.summary: HIV assay in human PBM cells infected with HIV-1 LAI, RT quantification
Assay type: cell-based
cond: Human immunodeficiency virus 1, PBMC; 10 μM, PBM cells, HIV-1 LAI
Exercise: for every item that follows, state its recorded inhibition at 10 µM.
Numbers only, in %.

{"columns": ["compound", "inhibition at 10 µM (%)"],
 "data": [
  ["CCCCCc1ccc(-c2cn(C/C(C)=C/CP(=O)(OCOC(=O)OC(C)C)OCOC(=O)OC(C)C)nn2)cc1 [Compound 11c]", 44.4]
]}

Items follow; give inhibition at 10 µM for each.
1. CNC(=O)c1cn(C/C(C)=C/CP(=O)(OCOC(=O)OC(C)C)OCOC(=O)OC(C)C)nn1 [Compound 11p]
2. C/C(=C\CP(=O)(OCOC(=O)OC(C)C)OCOC(=O)OC(C)C)Cn1cc(C2CC2)nn1 [Compound 11f]
3. C/C(=C\CP(=O)(OCOC(=O)OC(C)C)OCOC(=O)OC(C)C)Cn1cc(C=O)nn1 [Compound 11i]
4. C/C(=C\CP(=O)(OCOC(=O)OC(C)C)OCOC(=O)OC(C)C)Cn1cc(C(=O)O)nn1 [Compound 11m]

1. 36.4
2. 30.7
3. 28.4
4. 12.9

* * *

Exercise: for every item that follows, state its recorded inhibition at 10 µM.
Test system: HIV-1 LAI
test.summary: HIV assay in human PBM cells infected with HIV-1 LAI, RT quantification
Assay type: cell-based
cond: Human immunodeficiency virus 1, PBMC; 10 μM, PBM cells, HIV-1 LAI
Answers are plain numbers, in %.

{"columns": ["compound", "inhibition at 10 µM / %"],
 "data": [
  ["C/C(=C\\CP(=O)(OCOC(=O)OC(C)C)OCOC(=O)OC(C)C)Cn1cc(-c2ccc([N+](=O)[O-])cc2)nn1 [Compound 11l]", 38.8]
]}

Consider now this further compound.
Quick check: inhibition at 10 µM of CCCCCCCC(=O)NCc1cn(C/C(C)=C/CP(=O)(OCOC(=O)OC(C)C)OCOC(=O)OC(C)C)nn1 [Compound 11k] ?
42

* * *

Exercise: for every item that follows, state its recorded IC50.
test.summary: Cytotoxicity MTS assay in HepG2 cells
Format: cell-based
cond: human

Recorded results for 4 compounds are shown here.
{"columns": ["compound", "endpoint.name", "observed.result"],
 "data": [
  ["C/C(=C\\CP(=O)(OCOC(=O)OC(C)C)OCOC(=O)OC(C)C)Cn1cc(CO)nn1 [Compound 11h]", "IC50", "> 100 µM"],
  ["CCNC(=O)c1cn(C/C(C)=C/CP(=O)(OCOC(=O)OC(C)C)OCOC(=O)OC(C)C)nn1 [Compound 11q]", "IC50", "> 100 µM"],
  ["CCCCCCCCCCCCCCCCOCCCOP(=O)(C/C=C(\\C)Cn1cc(-c2ccc(CCCCC)cc2)nn1)OCOC(=O)OC(C)C (centres unmarked) [Compound 15c]", "IC50", "> 100 µM"],
  ["CCCCCCCc1ccc(-c2cn(C/C(C)=C/CP(=O)(OCOC(=O)OC(C)C)OCOC(=O)OC(C)C)nn2)cc1 [Compound 11e]", "IC50", "90.8 µM"]
]}

Consider now this further compound.
Quick check: IC50 of COC(=O)c1cn(C/C(C)=C/CP(=O)(OCOC(=O)OC(C)C)OCOC(=O)OC(C)C)nn1 [Compound 11n] ?
> 100 µM

* * *

test.summary: Cell culture viability in the Huh7 HBV assay (HPRT1 DNA copy number)
cond: human
endpoint.name: viability at 4 days, 10 µM (%)
Numbers only, in %.

Recorded results for 4 compounds are shown here.
{"columns": ["compound", "units.symbol", "observed.result"],
 "data": [
  ["C/C(=C\\CP(=O)(OCOC(=O)OC(C)C)OCOC(=O)OC(C)C)Cn1cc(-c2ccc([N+](=O)[O-])cc2)nn1 [Compound 11l]", "%", 100],
  ["CCCCCCCc1ccc(-c2cn(C/C(C)=C/CP(=O)(OCOC(=O)OC(C)C)OCOC(=O)OC(C)C)nn2)cc1 [Compound 11e]", "%", 95],
  ["CCCc1ccc(-c2cn(C/C(C)=C/CP(=O)(OCOC(=O)OC(C)C)OCOC(=O)OC(C)C)nn2)cc1 [Compound 11a]", "%", 96],
  ["CCCCCCCCCCCCCCCCOCCCOP(=O)(C/C=C(\\C)Cn1cc(C(N)=O)nn1)OCOC(=O)OC(C)C (centres unmarked) [Compound 15j]", "%", 74]
]}

Items follow; give viability at 4 days, 10 µM for each.
1. CCCCCCCCCCCCCCCCOCCCOP(=O)(C/C=C(\C)Cn1cc(-c2ccc([N+](=O)[O-])cc2)nn1)OCOC(=O)OC(C)C (centres unmarked) [Compound 15l]
2. C/C(=C\CP(=O)(OCOC(=O)OC(C)C)OCOC(=O)OC(C)C)Cn1cc(C(C)(C)C)nn1 [Compound 11g]
3. C/C(=C\CP(=O)(OCOC(=O)OC(C)C)OCOC(=O)OC(C)C)Cn1cc(C=O)nn1 [Compound 11i]

1. 100
2. 79
3. 95

Items follow; give viability at 4 days, 10 µM for each.
1. CCCCCc1ccc(-c2cn(C/C(C)=C/CP(=O)(OCOC(=O)OC(C)C)OCOC(=O)OC(C)C)nn2)cc1 [Compound 11c]
2. CCCCCCc1ccc(-c2cn(C/C(C)=C/CP(=O)(OCOC(=O)OC(C)C)OCOC(=O)OC(C)C)nn2)cc1 [Compound 11d]
3. CCCCCCCCCCCCCCCCOCCCOP(=O)(C/C=C(\C)Cn1cc(-c2ccc(CCCCC)cc2)nn1)OCOC(=O)OC(C)C (centres unmarked) [Compound 15c]
4. C/C(=C\CP(=O)(OCOC(=O)OC(C)C)OCOC(=O)OC(C)C)Cn1cc(C(=O)O)nn1 [Compound 11m]

1: 89; 2: 100; 3: 47; 4: 57

* * *

test.summary: Cytotoxicity MTS assay in HepG2 cells
Type: cell-based
cond: human
Experimental: Assays were performed in human peripheral blood mononuclear (PBM) and human liver (HepG2) cells via MTS assay using the CellTiter 96® Non-Radioactive Cell Proliferation (Promega) kit as previously described^3. Cytotoxicity was expressed as the concentration of test compounds that inhibited cell proliferation by 50% (IC50) and calculated using the Chou and Talalay method.
endpoint.name: IC50 (µM)
Answers are plain numbers, in µM.

{"columns": ["compound", "observed.result"],
 "data": [
  ["CCCCCCCCCCCCCCCCOCCCOP(=O)(C/C=C(\\C)Cn1cc(C(N)=O)nn1)OCOC(=O)OC(C)C (stereo not shown) [Compound 15j]", 66.4],
  ["CCCCCCCC(=O)NCc1cn(C/C(C)=C/CP(=O)(OCOC(=O)OC(C)C)OCOC(=O)OC(C)C)nn1 [Compound 11k]", 57.3],
  ["C/C(=C\\CP(=O)(OCOC(=O)OC(C)C)OCOC(=O)OC(C)C)Cn1cc(-c2ccc([N+](=O)[O-])cc2)nn1 [Compound 11l]", 85.3]
]}

Consider now this further compound.
Quick check: IC50 of CCCc1ccc(-c2cn(C/C(C)=C/CP(=O)(OCOC(=O)OC(C)C)OCOC(=O)OC(C)C)nn2)cc1 [Compound 11a] ?
18.3
